Tested on: NCI/ADR-RES ovarian
Experiment Notes: NCI-60 one-dose screen, 48 h
Conditions Used: 10 µM unless noted
This is part of a sample that, as a whole, favours compounds with a hit. Of some 83,000 tested, about 20% had one in any assay. Calls of active or inactive are those of the source. The calls were made as follows: active = growth percent below 10; inactive = the rest.
Outcome codes: true (1) for active, false (0) for inactive

# Compound, Group
rows = [
    ("COc1c(C(=O)/C=C/c2ccc(C)o2)c(O)cc2occc12", "false (0)"),
    ("OC(c1cc(-c2ccc(C(F)(F)F)cc2)nc(-c2ccc(C(F)(F)F)cc2)c1)C1CCCCN1 (centres undefined)", "true (1)"),
    ("CN1CCN(Cc2ccc(NC(=O)c3cncc(C#Cc4ccc(N)nc4)c3)cc2C(F)(F)F)CC1", "false (0)"),
    ("O=C(Oc1c(Cl)c(Cl)c(Cl)c(Cl)c1Cl)C1CCCN1C(=O)OCc1ccccc1 (centres undefined)", "false (0)"),
    ("O=C(O)c1ccccc1N=Cc1ccccc1", "false (0)"),
    ("CC(C)COC(=O)NC(C)(C)C", "false (0)"),
    ("CCCCn1cnc(-c2cc(-c3ccccc3)cc(C(F)(F)F)c2)n1", "false (0)"),
    ("OC(c1cc2cc(Cl)ccc2c2cc(C(F)(F)F)ccc12)C1CCCCN1 (centres undefined)", "true (1)"),
    ("C#CC[C@@H]1C[C@]2(C)[C@H]3CC=C4[C@H]5[C@@H](C)[C@H](C)CC[C@]5(C(=O)NCCCCCCCCN)CC[C@@]4(C)[C@]3(C)CC[C@H]2C(C)(C)[C@H]1OC(C)=O", "false (0)"),
]

Cited source for all entries: PubChem BioAssay (NCI)
